The values you see were collected from ChEMBL document CHEMBL1129660.

Test details: Geometric mean of antibacterial activity (Gram -ve bacteria) of the compound
Format: functional
Geometric mean by entry:
Give the figure only, with no unit attached.

Solved cases below.
Cc1c(N2CCCC(CO)C2)c(N)cc2c(=O)c(C(=O)O)cn(C3CC3)c12 (stereo not given); 0.504
CN1CCN(c2nc3c(cc2N)c(=O)c(C(=O)O)cn3C2CC2)CC1; 0.416
CN1CCN(c2c(N)cc3c(=O)c(C(=O)O)cn(C4CC4)c3c2F)CC1; 0.699
Cc1c(N2CCCCC2)c(N)cc2c(=O)c(C(=O)O)cn(C3CC3)c12; 0.225
O=C(O)c1cn(C2CC2)c2cc(N3CCNCC3)c(F)cc2c1=O; 0.033

What the record says about `Cc1c(N2CCc3ccccc3C2)c(F)cc2c(=O)c(C(=O)O)cn(C3CC3)c12` : Geometric mean is 0.451
